test.target: T1, human CD30L expressed on cells (human, UniProt P32971 1-234)
T1 construct: whole, on cells; also called huCD30L; B16-huCD30L cells
T1 sequence (looked up): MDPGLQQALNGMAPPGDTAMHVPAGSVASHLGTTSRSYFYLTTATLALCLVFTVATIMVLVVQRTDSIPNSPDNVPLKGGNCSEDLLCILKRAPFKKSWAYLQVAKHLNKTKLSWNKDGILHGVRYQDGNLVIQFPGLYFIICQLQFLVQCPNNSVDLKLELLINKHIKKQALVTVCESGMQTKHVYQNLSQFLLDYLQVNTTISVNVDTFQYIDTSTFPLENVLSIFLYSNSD
experiment.summary: flow cytometry, blocking of huCD30 binding to B16-huCD30L cells
We begin with a simple list: items and their reported IC50.
Number in nM, nothing else.

# IC50 (binder: Clone 2, Mouse IgG (antibody, V domains shown, Mouse IgG format) VH: EVQLVESGGGLVQPGRSLRLSCAASGFNFDDYAMHWVRQAPGKGLEWVSGISWRSGNIGYAGSVKGRFTISRDNAKNSLYLQMNSLRPEDSALYYCAKDKGIGFNWNYEGFDYWGQGTLVTVSS VL: DIQMTQSPSSLSASVGDRVTITCRASQGISNHLAWFQQKPGKAPKSLIYAASSLQSGVPSKFSGSGSGTDFTLTISSLQPEDFATYYCQQYVTYPLTFGGGTKVEIK ) is 1.84

IC50 in this record for Clone 2, Human IgG1 (antibody, V domains shown, Human IgG1 format) VH: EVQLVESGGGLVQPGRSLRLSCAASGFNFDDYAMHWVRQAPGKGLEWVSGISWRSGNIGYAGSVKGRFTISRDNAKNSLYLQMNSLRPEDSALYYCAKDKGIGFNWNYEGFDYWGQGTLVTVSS VL: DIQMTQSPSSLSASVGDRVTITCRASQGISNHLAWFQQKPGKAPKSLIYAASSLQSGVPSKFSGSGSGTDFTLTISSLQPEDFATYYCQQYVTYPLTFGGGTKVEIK : 0.86

The measured IC50 associated with Clone 1, Mouse IgG (antibody, V domains shown, Mouse IgG format) VH: QVQLQESGPGLVKPSETLSLTCTVSGGSISGYYWSWIRQPPVKGLEWIGYIFYSGYTKYNPSLKSRVTISVDTSKNQFSLKLSSVTAADTAVYYCARDRWDFDYWGQGALVTVSS VL: AIQMTQSPSYLSASVGDRVTIACRASQGIRNNLGWYQQKPGKAPKLLIYAESSLQSGVPSRFSGSGSGTDFTLTISSLQPEDFATYYCLQDFNYPYTFGQGTKLEIK reads 3.06

Lab note: Clone 1, Human IgG1 (antibody, V domains shown, Human IgG1 format) VH: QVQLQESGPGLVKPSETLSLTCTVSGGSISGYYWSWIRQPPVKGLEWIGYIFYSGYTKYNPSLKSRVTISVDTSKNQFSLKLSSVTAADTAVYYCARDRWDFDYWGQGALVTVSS VL: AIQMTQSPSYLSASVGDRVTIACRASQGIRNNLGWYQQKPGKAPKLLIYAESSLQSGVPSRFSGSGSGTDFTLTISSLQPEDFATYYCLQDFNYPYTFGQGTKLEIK gave IC50 of 1.35

The binder identified as anti-CD30L Reference 1 antibody (antibody, human IgG1, lambda, V domains shown) VH: QVQLQESGPGLVKPSETLSLTCTVSGGSISSYIWSWIRQPAGKGLEWIGRIYASGNTNYNPSLKSRVTISVDTSKNQFSLKLSSMTAADTAVYYCARDYRVAGTYYYYYGLDVWGQGTTVTVSS VL: QSALTQPASVSGSPGQSITISCTGTSSDVGVYDYVSWYQQHPGKAPKLMIYEVSNRPSGVSNRFSGSKSGNTASLTISGLQTEDEADYYCSSYTSRSTWVFGGGTKLTVLG registered its IC50 at 2.77
